studySystem: PGI of T. brucei (Trypanosoma brucei brucei, UniProt P13377)
Sequence (P13377 whole entry): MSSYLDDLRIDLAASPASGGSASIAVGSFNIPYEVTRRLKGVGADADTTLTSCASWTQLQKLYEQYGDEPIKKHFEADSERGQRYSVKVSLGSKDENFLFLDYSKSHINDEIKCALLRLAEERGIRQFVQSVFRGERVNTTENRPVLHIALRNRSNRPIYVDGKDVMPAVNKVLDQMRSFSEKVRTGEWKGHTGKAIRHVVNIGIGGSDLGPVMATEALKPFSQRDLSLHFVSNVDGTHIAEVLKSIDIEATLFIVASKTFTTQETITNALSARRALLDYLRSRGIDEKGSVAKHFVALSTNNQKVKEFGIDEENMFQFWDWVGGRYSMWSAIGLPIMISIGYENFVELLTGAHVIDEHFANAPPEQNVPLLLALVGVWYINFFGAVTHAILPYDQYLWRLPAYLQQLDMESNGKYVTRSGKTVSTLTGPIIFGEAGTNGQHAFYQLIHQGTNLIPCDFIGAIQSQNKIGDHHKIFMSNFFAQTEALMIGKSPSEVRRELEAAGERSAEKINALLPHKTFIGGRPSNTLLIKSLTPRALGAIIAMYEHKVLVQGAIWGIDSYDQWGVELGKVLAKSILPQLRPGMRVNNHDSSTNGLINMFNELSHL
measureName: Ki (µM)
Form entry: value (µM) — number only.

// query I have this compound here, C=C(C)[C@@H](CC)CC[C@@H](C)[C@H]1CC[C@H]2[C@@H]3CC=C4C[C@@H](O)CC[C@]4(C)[C@H]3CC[C@]12C [Compound 2, (3β,24S)-Stigmasta-5,25-dien-3-ol] , and I need its recorded Ki.
// result 10
